Target: T1, human ferroportin 1 (human, UniProt Q9NP59 1-571)
T1 construct: also called human FPN1; FPN1
T1 sequence: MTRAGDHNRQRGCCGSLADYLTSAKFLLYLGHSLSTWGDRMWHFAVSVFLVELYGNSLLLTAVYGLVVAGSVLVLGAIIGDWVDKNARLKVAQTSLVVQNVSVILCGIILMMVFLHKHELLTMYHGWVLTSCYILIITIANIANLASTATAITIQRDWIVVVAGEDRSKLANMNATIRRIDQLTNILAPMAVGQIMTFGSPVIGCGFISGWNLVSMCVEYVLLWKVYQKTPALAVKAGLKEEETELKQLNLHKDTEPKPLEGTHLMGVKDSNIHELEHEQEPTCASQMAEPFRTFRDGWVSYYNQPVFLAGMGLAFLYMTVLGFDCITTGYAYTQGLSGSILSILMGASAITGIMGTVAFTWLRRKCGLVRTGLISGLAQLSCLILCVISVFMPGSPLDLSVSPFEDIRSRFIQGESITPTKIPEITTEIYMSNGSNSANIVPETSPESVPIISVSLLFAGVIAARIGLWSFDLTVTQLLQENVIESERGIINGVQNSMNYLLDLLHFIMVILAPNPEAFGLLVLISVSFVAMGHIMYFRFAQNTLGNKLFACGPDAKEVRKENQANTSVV
Assay: inhibition of binding of 30 nM biotinylated hepcidin to FPN/293 cells, ELISA of lysate; antibody at 125 nM; mean
property_label: % Inhibition (%)
Could you give me the number in %? Just the number is fine.

[in] Requested read-out: % Inhibition. Entry: Mab L2.2-4 (antibody, human IgG4 S228P, kappa, F234A L235A, V domains shown) VH: QVQLVQSGAEVKKPGSSVKVSCKASGYAFTSFLIEWVRQAPGQGLEWMGTSNPRTGGRKYKEKFRGRVTITADKSTSTAYMELSSLRSEDTAVYYCAREFFDYWGQGTTVTVSS VL: DIQMTQSPSSLSASVGDRVTITCRASKSISKYTAWYQQKPGKAPKLLIYAGSKLRSGVPSRFSGSGSGTDFTLTISSLQPEDFATYYCQQHNEYPYTFGGGTKVEIKR
[out] 76.5
